# MEASUREMENT NOTES: Metabolic stability in rat liver microsomes assessed as half life at 1 uM measured upto 90 mins by LC-MS/MS analysis
# Format: ADME, Microsome
QUANTITY MEASURED: half-life at 1 µM (h)

Example cases with answers are listed next.
# COMPOUND, UNIT LABEL, half-life at 1 µM
records = [
    ("CC(C)n1cnnc1-c1cccc(NC(=O)c2cc3c(cc2F)CCC(=O)N3C)n1", "h", 1.2),
    ("CC(C)N1C(=O)COc2cc(F)c(C(=O)Nc3cccc(-c4nncn4C(C)C)n3)cc21", "h", 0.297),
]

(A) CC(CO)n1cnnc1-c1cccc(NC(=O)c2cc3c(cc2F)OCC(=O)N3)n1 (configuration not stated)
(B) O=C(Nc1cccc(-c2nncn2CC2CC2)n1)c1cc2c(cc1F)OCc1cncn1-2
(C) CC(C)n1cnnc1-c1cccc(NC(=O)c2cc3c(cc2F)CCC(=O)N3)c1
(D) O=C1COc2cc(F)c(C(=O)Nc3cccc(-c4nncn4-c4ccccc4)n3)cc2N1
(E) CN1C(=O)CCCc2cc(F)c(C(=O)Nc3cccc(-c4nncn4C4CC4)n3)cc21
Exercise: Kindly order the items shown according to half-life at 1 µM, from the highest value down. Answer by listing the labels in the order asked for.
Key: D, C, E, A, B
(D: 8.74 h, C: 5.49 h, E: 3.15 h, A: 2.12 h, B: 0.275 h)
